Listed below: PBM binding z-score values for each entry.
Test system: RARb homodimer (NR concentration 270 nM)
Test: PBM binding z-score (relative to random genomic background probes); higher = stronger binding; sequences stand for … in GC…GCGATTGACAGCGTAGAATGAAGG

RESIDUES | PBM binding z-score
CGAACTAGGTCATCTAGGACAGTGAATACATTGA | 2.74
TAGCCTAGGTCATGCGGGGCAGTATAGTGTCGGC | 3.26
ATCTCTAGGTGAAGATAGTTCAGTGAATGCAAAT | 1.19
TCATATAGGTAAAGGGTGAAAGTCGGTGTGGTAA | 1.59
GATACTGGGTCAGCTAGAGGCCAGAGTATGGAAA | 2.73
CGTCCAAGGTCAATGCTAGGTCGGTGAAAGCATT | 4.24
GCTATTAGTTGTAAGGGCAACCGAATGATTCTCG | 1.47
GCGACTGGGGCATCAGCAGGTTACGATAACTTAA | 0.928
ATCGAAAGGTCGAACGTGAGTATACCCACCCGAA | 2.3
CCTTACGGGTCACTCCAGGCTATAGCATCGGAGT | 2.51
CGTCAAAGTTCAATGTAACGTAACAGAAAGCAGC | 3.56
GATACAGGGTCAAGGCCAGCGTACGCGTATTGAT | 3.63
GCATATAGGTAATATAAGGTGAAAGTCCGATTGT | 0.859
AGAATGAGGTTATACGTAGATCAGTGAAGAAAGT | 0.6
GCTAGTTGGTGAGTAAAAGGTCACACACCGGTCG | 4.97
TCTGCTAGGTCAACGATTGTCAGCTAATCTGCTA | 3.06
GCAGACAGGTGAAACGCAAGTAACTCAGGGTGGC | -0.222
TCTCGGAGGACACGAAGGACAGAGCTTTCCAGAG | 0.867
ACAGACAGGTGAGTGAAGGTAACTTAGCTGGACG | -0.0414
ATCGAAAGGTCGACGAGGTGAGTGTACACCGTTT | 3.22
TTACCAAGGTGAAAGGTCGTCGATGCACGCCTTG | 2.78
CCGACTGGGCCAGAAAGGTTACCATACCATCCGG | 1.97
TCATATAGGTAATACAGGTGAAGGTCGGCATCTA | 2
CCTAGCAGGCCAATTTGGGTCACTCAAGGCTTGA | 2.08
GCTAGCAGGCCATTTGGGACACTCAATGACGGGC | -0.366
TCTAGTCGGTCACGGAGGTCACACACGACGGGTA | 5.2
TCATATAGGGAATACAGGTGAAAGTCGGCATCTA | 0.795
TCTATTAGTAGATTAGGGCAACCGAAACAGCGGA | 0.21
TCGAGTTGGTTAGTCGGGGCATTCAGCCAACATA | 0.0639

###

System: FXR:RXRa (NR concentration 270 nM, RXRa partner concentration 90 nM)
Test: PBM binding z-score (relative to random genomic background probes); higher = stronger binding; sequences stand for … in GC…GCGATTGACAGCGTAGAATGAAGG

RESIDUES | MEASURED ON | PBM binding z-score
ATCTCTAGGTAAAGATAGTTCAGTGAGTGCAAAT | FXR:RXRa (NR concentration 270 nM, RXRa partner concentration 90 nM) | -0.0159
GCTGGGAGGACAAGGTCAGAGCTTTGTCCGTAGA | FXR:RXRa (NR concentration 270 nM, RXRa partner concentration 90 nM) | 1.59
GCCTGTAGATCAAGGTTAAGAAAGACTAAGCTAA | FXR:RXRa (NR concentration 270 nM, RXRa partner concentration 90 nM) | 0.000969
CCGACTTGGGCAGAAAGGTTACCATACCATCCGG | FXR:RXRa (NR concentration 270 nM, RXRa partner concentration 90 nM) | 0.0234
ATCGAAAGGTCGAGGTGAGTTTAGAGAAAGGGAA | FXR:RXRa (NR concentration 270 nM, RXRa partner concentration 90 nM) | 4.34
AAATGTAGGTTAGCTGGGGTCATTCAGACTAGGC | FXR:RXRa (NR concentration 270 nM, RXRa partner concentration 90 nM) | 4.53
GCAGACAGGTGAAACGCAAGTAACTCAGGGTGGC | FXR:RXRa (NR concentration 270 nM, RXRa partner concentration 90 nM) | -0.454
CCTAGTTGGTCAAGGTCACCCACGCTATAGGTAC | FXR:RXRa (NR concentration 270 nM, RXRa partner concentration 90 nM) | 4.05
CCTTACGGGGCAAGGTTATAGCACGGGTGGTACG | FXR:RXRa (NR concentration 270 nM, RXRa partner concentration 90 nM) | 0.333
CCTACTGGGCCACGACAGGTCATTGATTCAGTGA | FXR:RXRa (NR concentration 270 nM, RXRa partner concentration 90 nM) | 0.777
GCTAGTTGGTCAGTAAAAGGTCACACCCCGGTCG | FXR:RXRa (NR concentration 270 nM, RXRa partner concentration 90 nM) | 2.85
CGAACTAGGTCAGAACGGGACAGTGAAGGATGAT | FXR:RXRa (NR concentration 270 nM, RXRa partner concentration 90 nM) | 0.777
AGAATGAGGTTATAAAGATCAGGGAATTGCGGTC | FXR:RXRa (NR concentration 270 nM, RXRa partner concentration 90 nM) | 1.45
TAGCCTAGGTCATGCAGGCCAGTATAGTGTCGGC | FXR:RXRa (NR concentration 270 nM, RXRa partner concentration 90 nM) | 3.92
CATACTAGGTCACAGAGGTCAAAGTCCGTGCGTA | FXR:RXRa (NR concentration 270 nM, RXRa partner concentration 90 nM) | 6.69
